Target: HilD (Salmonella typhimurium)
Construct: endogenous in cells
Assay: Whole-cell HilD activity assay (PhilA-sfGFP activation)
measured.endpoint: IC50

Recorded IC50 for CCCCCC/C=C\CCCCCCCC(=O)O [palmitoleic acid, reference compound] , please? 25.8 µM

Recorded IC50 for Cc1ccc(CN(C)CC(=O)NCc2ccc3c(c2)OCO3)s1 , please? 63.1 µM

Recorded IC50 for CN(CC(=O)NCc1ccc2c(c1)OC(F)(F)O2)Cc1ccc(Br)s1 , please? 4.9 µM

Recorded IC50 for CN(CC(=O)NCc1ccc2c(c1)OCO2)Cc1ccc(Br)cc1 , please? 68.3 µM

Recorded IC50 for CCCCCCCC/C=C\CCCCCCCC(=O)O [oleic acid, reference compound] , please? 25.1 µM

Recorded IC50 for CN(CC(=O)NCc1ccc(O)c(O)c1)Cc1ccc(Br)s1 , please? > 100 µM

Recorded IC50 for CN(CC(=O)NCc1ccc(Cl)cc1)Cc1ccc(Br)s1 , please? 3.9 µM

Recorded IC50 for CN(CC(=O)NCc1ccccc1)Cc1ccc(Br)s1 , please? 34.4 µM

Recorded IC50 for CN(CC(=O)NCc1cc(Cl)cc(Cl)c1)Cc1ccc(Br)s1 , please? 3.2 µM

Recorded IC50 for CN(CC(=O)NCc1ccc2c(c1)OCO2)Cc1ccc(Br)s1 , please? 16.9 µM

Recorded IC50 for CCCCCCCCCCCCC/C=C\C(=O)O [c2-HDA, cis-2-hexadecenoic acid, reference compound] , please? 0.21 µM

Recorded IC50 for CN(CC(=O)NCc1ccc2c(c1)OCO2)Cc1ccccc1Br , please? > 100 µM

Recorded IC50 for CN(CC(=O)NCc1ccc2c(c1)OCO2)Cc1ccc(Br)o1 , please? > 100 µM

---

Hi there, I'd appreciate the recorded TC50 cytotoxicity for every entry that follows.
Test system: HeLa cells
Test: Cytotoxicity, CellTox Green Cytotoxicity Assay, HeLa
Assay type: cell-based
Conditions: exposure time 18 h
Your answer is read as µM, so omit the unit and give the number.

Recorded TC50 cytotoxicity for CN(CC(=O)NCc1ccc(Cl)cc1)Cc1ccc(Br)s1 [SW-C202] , please? 87.3

Recorded TC50 cytotoxicity for CN(CC(=O)NCc1ccc2c(c1)OC(F)(F)O2)Cc1ccc(Br)s1 [SW-C182] , please? 49.9

---

Hi there, I'd appreciate the recorded Kd for every entry that follows.

Can you look up Kd on HilD (Salmonella typhimurium, UniProt P0CL08) for CN(CC(=O)NCc1ccc2c(c1)OC(F)(F)O2)Cc1ccc(Br)s1 [SW-C182] ? 2.7 µM

Can you look up Kd on HilD (Salmonella typhimurium, UniProt P0CL08) for CN(CC(=O)NCc1ccc(O)c(O)c1)Cc1ccc(Br)s1 [SW-C170] ? > 100 µM

Can you look up Kd on HilD (Salmonella typhimurium, UniProt P0CL08) for CN(CC(=O)NCc1ccc2c(c1)OCO2)Cc1ccccc1Br [SW-C165] ? > 100 µM

Can you look up Kd on HilD (Salmonella typhimurium, UniProt P0CL08) for CN(CC(=O)NCc1ccc(Cl)cc1)Cc1ccc(Br)s1 [SW-C202] ? 4.1 µM

Can you look up Kd on HilD (Salmonella typhimurium, UniProt P0CL08) for CN(CC(=O)NCc1cc(Cl)cc(Cl)c1)Cc1ccc(Br)s1 [SW-C250] ? 1.8 µM

Can you look up Kd on HilD (Salmonella typhimurium, UniProt P0CL08) for CN(CC(=O)NCc1ccc2c(c1)OCO2)Cc1ccc(Br)o1 [SW-C210] ? > 100 µM

Can you look up Kd on HilD (Salmonella typhimurium, UniProt P0CL08) for CN(CC(=O)NCc1ccc2c(c1)OCO2)Cc1ccc(Br)s1 [C26] ? 30.2 µM

Can you look up Kd on HilD (Salmonella typhimurium, UniProt P0CL08) for Cc1ccc(CN(C)CC(=O)NCc2ccc3c(c2)OCO3)s1 [SW-C153] ? 8.8 µM

Can you look up Kd on HilD (Salmonella typhimurium, UniProt P0CL08) for CN(CC(=O)NCc1ccc2c(c1)OCO2)Cc1ccc(Br)cc1 [SW-C116] ? > 100 µM

Can you look up Kd on HilD (Salmonella typhimurium, UniProt P0CL08) for CN(CC(=O)NCc1ccccc1)Cc1ccc(Br)s1 [SW-C103] ? 28.8 µM
